Values compiled from the supplement of paper PMC10567573.

B1: ADD1 (parent)
chain: FASDGDSGTCSPLRHSFQKQQREK

Variants of: B1
Assay: protein stability index of a GFP-peptide fusion (GPS, HEK-293T) (PSI 1-6); higher = more stable;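 also: lentivirally expressed fusions sorted by FACS into six bins by GFP to DsRed ratio, PSI derived from sequencing read proportions per bin multiplied by bin number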
Details: c terminus: a fixed tail appended
Property label: protein stability index
Reply: number alone, nothing else.

Observe how each entry below is paired with its result.
mutation_annotation=A2V property_label="protein stability index" reported_value=3.07
mutation_annotation=S11N property_label="protein stability index" reported_value=1.87
mutation_annotation=C10K property_label="protein stability index" reported_value=4.17
mutation_annotation=Q18Y property_label="protein stability index" reported_value=3.31

--- query ---
For this variant ( "Q21L" ), measured protein stability index is 3.26
